Reference for the values: PubChem BioAssay (EPA / NIEHS)

# Assay Details: ATG_Sox_CIS: Attagene CIS-FACTORIAL HepG2 Assay for human SRY-box transcription factor (SOX) (AID 2282960)
# Run Parameters: HepG2 Attagene cis-factorial SOX reporter, mRNA; actives raise or lower the signal
The source made the active and inactive calls. Rule for the calls: active = hit-call score of the fitted dose curve at least 0.9, where 1 is the maximum; inactive = score below 0.9.
Labels: y (active), n (inactive)

- Entry Smiles: "COC(=O)Nc1cccc(OC(=O)Nc2cccc(C)c2)c1"
  Label: "n"
- Entry Smiles: "CCC[CH2][Sn]([Cl])([Cl])[CH2]CCC"
  Label: "y"
- Entry Smiles: "C[C@H]1C(=O)O[C@@H]2CCN3CC=C(COC(=O)[C@](C)(O)[C@]1(C)O)[C@H]23"
  Label: "n"
- Entry Smiles: "C=C(C)C(=O)OCCCCOC(=O)C(=C)C"
  Label: "n"

----------
# Assay Details: Tanguay_ZF_120hpf_AXIS_legacy: (Legacy) Oregon State University Tanguay Lab 120 Hour Post-fertilization zebrafish Assay for Body Axis Malformation (AID 2283635)
Records with an inconclusive call do not appear. Active and inactive are the calls of the source. How the source made its calls: active means hit-call score of the fitted dose curve at least 0.9, where 1 is the maximum; inconclusive means response in the unintended direction; inactive means score below 0.9.
Outcome codes: t = active, f = inactive

- Entry Smiles: "Oc1cc(Cl)c(Cl)cc1Cl"
  Label: "f"
- Entry Smiles: "CCCCCCCCCCCCc1cccc(S(=O)(=O)O)c1"
  Label: "f"
- Entry Smiles: "CN(C)C(=S)S"
  Label: "t"
- Entry Smiles: "O=C(O)C1(c2ccc3c(c2)OC[C@H](Cc2ccc(-c4ccccc4)cc2)[C@H]3O)CCCC1"
  Label: "f"

----------
# Assay Details: ATG_TA_CIS: Attagene CIS-FACTORIAL HepG2 Assay for human TA Basal Promoter (AID 2282964)
# Run Parameters: HepG2 Attagene CIS-factorial TA basal promoter reporter; actives raise or lower the signal
Active and inactive are the calls of the source. The calls were made as follows: active = hit-call score of the fitted dose curve at least 0.9, where 1 is the maximum; inactive = score below 0.9.
Labels: class 1 = active, class 0 = inactive

- Compound: "C#CCOC(=O)/C=C(C)/C=C/CC(C)CCCC(C)C (centres undefined)"
  Label: "class 0"
- Compound: "CCC[CH2][Sn]([CH2]CCC)([CH2]CCC)[CH2]CCC"
  Label: "class 1"
- Compound: "CC(C)=CC1C(C(=O)OCc2cccc(Oc3ccccc3)c2)C1(C)C (centres undefined)"
  Label: "class 0"
- Compound: "CCN(CCO)CCO"
  Label: "class 0"
- Compound: "Nc1ncn[nH]1"
  Label: "class 0"
- Compound: "BrCC(Br)c1ccccc1 (centres undefined)"
  Label: "class 0"
- Compound: "Cl[C@H]1OCCO[C@@H]1Cl"
  Label: "class 0"
- Compound: "CCCCCCCCCCCCBr"
  Label: "class 0"
- Compound: "C=C(C)[C@@H]1CC=C(C=O)CC1"
  Label: "class 0"
- Compound: "OC(c1ccc(Cl)cc1)(c1ccc(Cl)cc1)c1cccnc1"
  Label: "class 0"
- Compound: "O=[N+]([O-])c1ccccc1O"
  Label: "class 0"
- Compound: "O=c1[nH]c2ccccc2n1C1CCN(CCCC(c2ccc(F)cc2)c2ccc(F)cc2)CC1"
  Label: "class 0"
- Compound: "CCOC(=O)CC(=O)CCl"
  Label: "class 0"
- Compound: "CC(C)[N+](=O)[O-]"
  Label: "class 0"
- Compound: "COc1ccc([N+](=O)[O-])cc1O"
  Label: "class 0"
- Compound: "CC(C)N(C(=O)CCl)c1ccccc1"
  Label: "class 0"
- Compound: "Nc1ccc(N)cc1"
  Label: "class 0"
- Compound: "Brc1c(Br)c(Br)c(Oc2c(Br)c(Br)c(Br)c(Br)c2Br)c(Br)c1Br"
  Label: "class 0"
- Compound: "O=C(O)COc1ccc(Cl)cc1"
  Label: "class 0"

----------
# Measured On: Transcriptional activator Myb (Homo sapiens)
# Assay Details: ATG_Myb_CIS: Attagene CIS-FACTORIAL HepG2 Assay for human Myeloblastosis (Myb) Proto-Oncogene Transcription Factor (AID 2282986)
# Run Parameters: HepG2 Attagene CIS-FACTORIAL Myb reporter transcription; actives raise or lower the signal
Active and inactive are the calls of the source. Rule for the calls: active = hit-call score of the fitted dose curve at least 0.9, where 1 is the maximum; inactive = score below 0.9.
Outcome Measure: outcome

- Compound: "CC(C=O)Cc1ccc2c(c1)OCO2 (stereo not drawn)"
  Value Observed: "inactive"
- Compound: "CCC[CH2][Sn]([Cl])([Cl])[CH2]CCC"
  Value Observed: "inactive"
- Compound: "COCC(=O)N(c1c(C)cccc1C)[C@H](C)C(=O)OC"
  Value Observed: "inactive"

----------
# Read-out: Interleukin-8 (IL8), CXCL8 (gene 3576)
# Assay Details: BSK_hDFCGF_IL8: BioMAP Diversity Plus: hDFCGF Assay for Interleukin-8 (IL8) Biomarker Activity (AID 2283058)
# Run Parameters: primary human foreskin fibroblasts; actives raise or lower the signal
Calls of active or inactive are those of the source. Rule for the calls: active = hit-call score of the fitted dose curve at least 0.9, where 1 is the maximum; inactive = score below 0.9.
Outcome Measure: outcome

- Entry Smiles: "CCCCCCCCCCCCN(C)C"
  Value Observed: "inactive"
- Entry Smiles: "OCCCCO"
  Value Observed: "inactive"
- Entry Smiles: "CC(C)O.CC(C)O.OCCN(CCO)CCO.OCCN(CCO)CCO.[Ti]"
  Value Observed: "inactive"

----------
# Assay Details: ATG_PXRE_CIS: Attagene CIS-FACTORIAL HepG2 Assay for human Pregnane X Receptor Element (PXRE) (AID 2282957)
# Run Parameters: HepG2 Attagene CIS-FACTORIAL PXRE reporter, mRNA; actives raise or lower the signal
Calls of active or inactive are those of the source. Rule for the calls: active = hit-call score of the fitted dose curve at least 0.9, where 1 is the maximum; inactive = score below 0.9.
Outcomes: active, inactive

- Entry Smiles: "N#Cc1ccccc1N"
  Label: "active"
- Entry Smiles: "c1cc[c]([Sb]([c]2ccccc2)[c]2ccccc2)cc1"
  Label: "active"
- Entry Smiles: "N#Cc1ccc(Cl)cc1"
  Label: "active"
- Entry Smiles: "CCCCCCCCCCCCBr"
  Label: "inactive"
- Entry Smiles: "C#CCO"
  Label: "inactive"

----------
# Assay Details: ATG_DR4_LXR_CIS: Attagene CIS-FACTORIAL HepG2 Assay for human Liver X Receptor (LXR), DR4 submotif (AID 2282929)
# Run Parameters: HepG2 Attagene DR4 cis-reporter, mRNA transcription; actives raise or lower the signal
Active and inactive are the calls of the source. The calls were made as follows: active = hit-call score of the fitted dose curve at least 0.9, where 1 is the maximum; inactive = score below 0.9.
Classes used: active, inactive

- Molecule: "CN(N=O)C(N)=O"
  Label: "inactive"
- Molecule: "O=[N+]([O-])c1c2ccccc2cc2ccccc12"
  Label: "inactive"
- Molecule: "CCOP(=S)(OCC)SCS(=O)(=O)C(C)(C)C"
  Label: "active"
- Molecule: "OCCCCO"
  Label: "inactive"
- Molecule: "O=C(NC(=O)c1c(F)cccc1F)Nc1cc(Cl)c(F)c(Cl)c1F"
  Label: "active"
- Molecule: "CC(=O)C(F)(F)C(F)(F)F"
  Label: "inactive"
- Molecule: "C=CC(F)(C(F)(F)F)C(F)(F)C(F)(F)F (centres undefined)"
  Label: "inactive"
- Molecule: "Nc1ccc(Br)cc1"
  Label: "inactive"
- Molecule: "Fc1cccc(Cl)c1CCl"
  Label: "inactive"

----------
# Read-out: Intercellular Adhesion Molecule 1 (ICAM1), ICAM1 (gene 3383)
# Assay Details: BSK_KF3CT_ICAM1: BioMAP Diversity Plus: KF3CT Assay for Intercellular Adhesion Molecule 1 (ICAM1) Biomarker Activity (AID 2283067)
# Run Parameters: primary human keratinocytes with fibroblasts; actives raise or lower the signal
Activity calls are given as the source filed them. The calls were made as follows: active = hit-call score of the fitted dose curve at least 0.9, where 1 is the maximum; inactive = score below 0.9.
Outcome codes: active, inactive

- Compound: "CCOP(=S)(OCC)OP(=S)(OCC)OCC"
  Label: "inactive"
- Compound: "CCOP(=O)(OCC)SCCSCC"
  Label: "inactive"
- Compound: "CC(C)(C)c1cc([N+](=O)[O-])cc(C(C)(C)C)c1O"
  Label: "inactive"
- Compound: "CCOC(=O)C(SP(=S)(OC)OC)c1ccccc1 (configuration not stated)"
  Label: "inactive"
- Compound: "Cc1ccc2nc3sc(=O)sc3nc2c1"
  Label: "active"
- Compound: "Clc1cccc(Cl)c1"
  Label: "inactive"
- Compound: "O=C1C=CC(=O)c2ccccc21"
  Label: "active"

----------
# Assay Details: BSK_hDFCGF_Proliferation: Cell Proliferation Assessment in the BioMAP Diversity Plus: hDFCGF Assay (AID 2283059);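 note: curves fitted for both rise and fall of signal versus DMSO baseline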
# Run Parameters: primary human foreskin fibroblasts
Calls of active or inactive are those of the source. Rule for the calls: active = hit-call score of the fitted dose curve at least 0.9, where 1 is the maximum; inactive = score below 0.9.
Possible outcomes: t = active, f = inactive

- Molecule: "CC(C)=CC1C(C(=O)OCc2cccc(Oc3ccccc3)c2)C1(C)C (stereo not drawn)"
  Label: "t"
- Molecule: "N#Cc1cccnc1"
  Label: "f"
- Molecule: "O=[N+]([O-])c1cccc2ccccc12"
  Label: "f"
- Molecule: "N#CCCC(Br)(C#N)CBr (stereo not drawn)"
  Label: "t"
- Molecule: "CCOP(=S)(OCC)SCS(=O)(=O)C(C)(C)C"
  Label: "f"
- Molecule: "O=c1oc2ccccc2c(O)c1C(CC(O)c1ccc(-c2ccc(Br)cc2)cc1)c1ccccc1 (stereo not drawn)"
  Label: "t"
- Molecule: "Oc1cc(Cl)c(Cl)cc1Cl"
  Label: "t"
- Molecule: "CCN(CC)C(=O)C(Cl)=C(C)OP(=O)(OC)OC"
  Label: "f"
- Molecule: "Nc1ccc(N)cc1"
  Label: "f"
- Molecule: "CC(C=O)Cc1ccc2c(c1)OCO2 (stereo not drawn)"
  Label: "f"
- Molecule: "O=C(O)C1(c2ccc3c(c2)OC[C@H](Cc2ccc(-c4ccccc4)cc2)[C@H]3O)CCCC1"
  Label: "t"
- Molecule: "C#CCOC(=O)/C=C(C)/C=C/CC(C)CCCC(C)C (stereo not drawn)"
  Label: "f"
- Molecule: "Cc1ccc2nc3sc(=O)sc3nc2c1"
  Label: "t"
